Tested on: BT-549 breast
test description: NCI tumour cell line growth inhibition, 48 h
Note to self: values exactly at 30 µM are TRUE. So TGI at or above 30 µM is TRUE, below is FALSE.

Here are 3 compounds together with their reported answers.
compound	answer label
S=c1nc[nH]c2nc[nH]c12	TRUE
CN(C)c1ccc(/C=C/c2ccnc3ccc4ccccc4c23)cc1	TRUE
CCCCC1C(=O)N(c2ccc(S(=O)(=O)Nc3ccccn3)cc2)N(c2ccc(O)c(C(=O)O)c2)C1=O (stereo not given)	TRUE

Is reported TGI greater than or equal to 30 µM here: CC(C)(Cl)C(Br)CCC(CBr)=C(Cl)CCl (mixture of isomers) FALSE

Check if TGI >= 30 µM (inclusive). Item: `CN(C)CCn1c(=O)oc2cc(C(=O)CN3CCOCC3)ccc21` TRUE

hey, is TGI for this one >= 30 µM? `CCCCCCCC/C=C\CCCCCCCC(=O)OC[C@]1(CO)CCC(=O)O1` TRUE

State whether the measured TGI reaches 30 µM, counting equality as reaching it, for `COc1cc(/C=C/C=C2\CCC/C(=C\C=C\c3ccc(O)c(OC)c3)C2=O)ccc1O` TRUE

Given `C[C@H](C(=O)N[C@@H](Cc1ccc(-c2ccccc2)cc1)C(=O)NC1CC(C)(C)N(C)C(C)(C)C1)c1ccc(-c2ccccc2)c(F)c1` , state whether its TGI is at least 30 µM. FALSE

Reported TGI reaches at least 30 µM for `CC(C)Oc1c(C2(c3ccccc3O)SCCCS2)c(=O)c1=O` ? TRUE

Reported TGI reaches at least 30 µM for `O=C(/C=c1\oc(=O)/c(=C/C(=O)c2ccc(Cl)cc2)oc1=O)c1ccc(Cl)cc1` ? TRUE

Tell me whether TGI is at least 30 µM here: `COc1ccc2[nH]c(-c3ccccc3)c(C=C(C#N)C#N)c2c1` TRUE

Does the reported TGI for `N#C/C(=C\c1ccc(F)cc1)c1nc2ccccc2c(=O)[nH]1` fall at or above the 30 µM mark? TRUE

Reported TGI reaches at least 30 µM for `Cc1cc(C)c(S(=O)(=O)N(CCCCCCN)OCCCN)c(C)c1` ? TRUE

Dear colleague, could you confirm whether `Cc1cc(Nc2cc(CN3CCOCC3)c3nc(C)c(Cc4ccc(Cl)cc4F)n3n2)n[nH]1` has TGI at or above 30 µM? FALSE

Where do the numbers come from? From PubChem BioAssay (NCI).
